Target: mixture of 10 nM human Factor B, 5 nM human Ba and 10 nM human Bb coated on the plate
Test: counterscreening ELISA, plate coated with a mixture of human Factor B, Ba and Bb, Fab supernatant
measuredProperty: OD (370 nm) (OD)
Provide only the numeric value, understood in OD.

Example binders with recorded OD (370 nm):
C3bBb.P045.072 (Fab, V domains shown, Tested as soluble Fab in E. coli supernatant with a T7 tag at the C-terminus of the Fab CH1 domain; detected with anti human kappa) VH: KLQLVESGGGLVKPGGSLRLSCAASGRRFGVQDMSWVRQAPGKGLEWVGSISPKGDHKYLNTKFIGRFTISRDNSKNTLYLQMNSLRAEDTAVYYCARDWGYFDQWGQGTLVTVSS VL: AIQMTQSPSSLSASVGDRVTITCHGSYWLSSEVAWYQQKPGKAPKLLIYDGNGIIGNVPSRFSGSGSHEDYTLTISSLQPEDFATYYCQQYRYHPYTFGHGTKVEIK = -0.01
C3bBb.P048.241 (Fab, V domains shown, Tested as soluble Fab in E. coli supernatant with a T7 tag at the C-terminus of the Fab CH1 domain; detected with anti human kappa) VH: GQLVESGGGLVKPGGSLRLSCKASGFYWGPGAMSWVRQAPGKGLEWVGSISPKGGSAWYNNNFTGRFTISRDNNQDTLYLQMNSLRAEDTAVYYCARDIGFFDTWGQGTLVTVSS VL: INQMTQSPSSLSASVGDRVTITCQAKWVISNYLAWYQQKPGKAPKLLIFDAKYRAPEVPSRFSGSGSDGTFTLTISSLQPEDFATYYCQQYDWWPYTFGQGTKVEIK = 0.037
C3bBb.P055.015 (Fab, V domains shown, Tested as soluble Fab in E. coli supernatant with a T7 tag at the C-terminus of the Fab CH1 domain; detected with anti human kappa) VH: GQLVESGGGLVKPGGSLRLSCKASGFYWGPGAMSWVRQAPGKGLEWVGSISPKGGSAEYASKVYGRFTISRDNNQDTLYLQMNSLRAEDTAVYYCARDIGFFDTWGQGTLVTVSS VL: DYQMTQSPSSLSASVGDRVTITCEAHSQISNYLAWYQQKPGKAPKLLIFDAKYRAPEVPSRFSGSGSGPDFTLTISSLQPEDFATYYCQQYNDFWLTFGQGTKVEIK = 0.004

Prompt line: Dear colleague, I am looking for the recorded OD (370 nm) of the following binder: C3bBb.P048.127 (Fab, V domains shown, Tested as soluble Fab in E. coli supernatant with a T7 tag at the C-terminus of the Fab CH1 domain; detected with anti human kappa) VH: GQLVESGGGLVKPGGSLRLSCKASGFYWGPGAMSWVRQAPGKGLEWVGSISPKGGSTEYNTKVYGRFTISRDNNQDTLYLQMNSLRAEDTAVYYCARDIGFFDTWGQGTLVTVSS VL: HQMTQSPSSLSASVGDRVTITCDGEWDISNYLAWYQQKPGKAPKLLIFDAKYRAPEVPSRFSGSGSGRDFTLTISSLQPEDFATYYCQQYNRMYFTFGQGTKVEIK
Response line: 0.002

Prompt line: Dear colleague, I am looking for the recorded OD (370 nm) of the following binder: C3bBb.P048.061 (Fab, V domains shown, Tested as soluble Fab in E. coli supernatant with a T7 tag at the C-terminus of the Fab CH1 domain; detected with anti human kappa) VH: GQLVESGGGLVKPGGSLRLSCKASGFYWGPGAMSWVRQAPGKGLEWVGSISPKGGSTDINPKIGGRFTISRDNNQDTLYLQMNSLRAEDTAVYYCARDIGFFDTWGQGTLVTVSS VL: AIQMTQSPSSLSASVGDRVTITCQGSWLISNYLAWYQQKPGKAPKLLIFDAKYRAPEVPSRFSGSGSGTDFTLTISSLQPEDFATYYCQQYGGRLLTFGQGTKVEIK
Response line: 0.006
